# target.under.test: T1, human CD39 protein (recombinant) (human, UniProt P49961 38-478, limits assumed)
# T1 construct: Soluble recombinant protein coated on ELISA plates and used in the protein-based ATPase assay; also called recombinant CD39 protein; recombinant purified human CD39 protein
# T1 sequence: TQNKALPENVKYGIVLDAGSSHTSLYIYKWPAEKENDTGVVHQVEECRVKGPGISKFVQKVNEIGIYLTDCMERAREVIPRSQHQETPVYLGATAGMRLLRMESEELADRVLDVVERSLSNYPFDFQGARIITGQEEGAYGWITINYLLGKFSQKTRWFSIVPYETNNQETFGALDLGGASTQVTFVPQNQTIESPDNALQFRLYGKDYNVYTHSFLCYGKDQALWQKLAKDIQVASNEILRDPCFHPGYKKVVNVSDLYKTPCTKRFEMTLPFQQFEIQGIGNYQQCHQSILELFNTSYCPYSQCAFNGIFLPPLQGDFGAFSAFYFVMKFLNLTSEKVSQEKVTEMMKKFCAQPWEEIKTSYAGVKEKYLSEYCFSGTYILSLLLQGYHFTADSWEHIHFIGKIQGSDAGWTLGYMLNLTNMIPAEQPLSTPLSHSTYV
# assay.name: ELISA on coated human CD39 protein
recorded.metric: EC50 (µg/mL)

binder="HuEM0004-38-17 (antibody, human IgG1, kappa, L234A L235A, V domains shown, humanized mAb638, human IgG1/kappa) VH: EVQLVQSGAEVKKPGASVKVSCKASGYTFTSFWMHWVRQAPGQGLEWMGNINPRNGATKYNEKFRSRVTMTADKSISTAYMELSRLRSDDTAVYYCAREDYDEIYYAMDSWGQGTTVTVSS VL: ENVLTQSPATLSLSPGERATLSCSASSSVIYMYWFQQKPGQSPRVLIYDTSNLASGVPARFSGSGSGTDYTLTISSLEPEDFAVYYCQQWSTYPLTFGQGTKLEIKR" recorded_metric=EC50 reading=0.044
binder="EM0004-38c2 (antibody, human IgG1, kappa, L234A L235A, name in Kabat numbering, V domains shown, chimeric mAb638 variant) VH: QVQLQQPGTELVKPGASVKLSCKASGYTFTSFWMHWVKQRPGQGLEWIGNINPRNAATKYNEKFRSKVTLTADKTSSTAYMHLSSLTSEDSAVYYCAREDYDEIYYAMDSWGQGTSVTVSS VL: QNVLTQSPAIMSASPGEKVTMTCSASSSVIYMYWFQQKPGSSPRVLIYDTSNLASGVPARFSGSGSGTSYSLTISRMEAEDAATYYCQQWSTYPLTFGAGTKLELKR" recorded_metric=EC50 reading=0.016
binder="HuEM0004-38-13 (antibody, human IgG1, kappa, L234A L235A, V domains shown, humanized mAb638, human IgG1/kappa) VH: EVQLVQSGAEVKKPGASVKVSCKASGYTFTSFWMHWVRQAPGQGLEWMGNINPRNGATKYNEKFRSRVTLTADKSISTAYMELSRLRSDDTAVYYCAREDYDEIYYAMDSWGQGTTVTVSS VL: ENVLTQSPATLSLSPGERATLSCSASSSVIYMYWFQQKPGQSPRVLIYDTSNLASGIPARFSGSGSGTDYTLTISSLEPEDFAVYYCQQWSTYPLTFGQGTKLEIKR" recorded_metric=EC50 reading=0.023
binder="HuEM0004-38-16 (antibody, human IgG1, kappa, L234A L235A, V domains shown, humanized mAb638, human IgG1/kappa) VH: EVQLVQSGAEVKKPGASVKVSCKASGYTFTSFWMHWVRQAPGQGLEWMGNINPRNGATKYNEKFRSRVTMTADTSISTAYMELSRLRSDDTAVYYCAREDYDEIYYAMDSWGQGTTVTVSS VL: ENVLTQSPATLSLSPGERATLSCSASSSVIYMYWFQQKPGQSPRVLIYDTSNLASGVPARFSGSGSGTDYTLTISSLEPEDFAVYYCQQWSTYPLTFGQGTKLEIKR" recorded_metric=EC50 reading=0.027
